Catalogue of compounds with associated pest or weed control at 3 ppm
Test system: Heliothis virescens
Assay: Heliothis virescens (tobacco budworm) egg/larval test on artificial diet
Type: in vivo
Details: 96 h, application rate 3 ppm
Give your result in % as a bare value.

Example cases with answers are listed next.
> print(dat)
                                   compound             parameter.measured  test.value
1  CSc1ccc(C2=NOC(c3cc(Cl)cc(Cl)c3)(C(F)(F)F)C2)cc1C (stereo not shown)  pest or weed control at 3 ppm           0
2  O=C(CSc1ccc(C2=NOC(c3cc(Cl)cc(Cl)c3)(C(F)(F)F)C2)cc1)NCC(F)(F)F (stereo not shown)  pest or weed control at 3 ppm          90
3  Cc1cc(C2=NOC(c3cc(Cl)cc(Cl)c3)(C(F)(F)F)C2)ccc1S(C)(=O)=O (stereo not shown)  pest or weed control at 3 ppm           0
4  O=C(CS(=O)(=O)c1ccc(C2=NOC(c3cc(Cl)cc(Cl)c3)(C(F)(F)F)C2)cc1)NCC(F)(F)F (stereo not shown)  pest or weed control at 3 ppm          80
5  O=C(C[S+]([O-])c1ccc(C2=NOC(c3cc(Cl)cc(Cl)c3)(C(F)(F)F)C2)cc1)NCC(F)(F)F (stereo not shown)  pest or weed control at 3 ppm          80
6  Cc1cc(C2=NOC(c3cc(Cl)cc(Cl)c3)(C(F)(F)F)C2)ccc1SCC(=O)NCC(F)(F)F (stereo not shown)  pest or weed control at 3 ppm         100

Quick one: pest or weed control at 3 ppm of Cc1cc(C2=NOC(c3cc(Cl)cc(Cl)c3)(C(F)(F)F)C2)ccc1S(=O)(=O)CC(=O)NCC(F)(F)F (stereo not shown) ?
80

Now the compound Cc1cc(C2=NOC(c3cc(Cl)cc(Cl)c3)(C(F)(F)F)C2)ccc1[S+]([O-])CC(=O)NCC(F)(F)F (stereo not shown)
80

Now the compound Cc1cc(C2=NOC(c3cc(Cl)cc(Cl)c3)(C(F)(F)F)C2)ccc1[S+](C)[O-] (stereo not shown)
0

Now the compound "Cc1cc(C2=NO[C@@](c3cc(Cl)cc(Cl)c3)(C(F)(F)F)C2)ccc1SCC(=O)NCC(F)(F)F"
100
